B1: MATN2 (parent)
chain: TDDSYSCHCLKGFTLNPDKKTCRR

Variants of: B1
Assay Details: protein stability index of a GFP-peptide fusion (GPS, HEK-293T) (PSI 1-6); higher = more stable;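 also: lentivirally expressed fusions sorted by FACS into six bins by GFP to DsRed ratio, PSI derived from sequencing read proportions per bin multiplied by bin number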
Run Conditions: c terminus: a fixed tail appended
Quick reference for protein stability index among some variants
The answer should be written as a number, with no unit following it.

TDDSYSCHCLKGFTLNPDKKTRRR [C22R]    2.86

Form: variant = HDDSYSCHCLKGFTLNPDKKTCRR [T1H] ; protein stability index = 2.7

Form: variant = TDDSYSCHCLGGFTLNPDKKTCRR [K11G] ; protein stability index = 2.78

Form: variant = TDDSYSCHELKGFTLNPDKKTCRR [C9E] ; protein stability index = 4.37

Form: variant = TDDSYSCHCLDGFTLNPDKKTCRR [K11D] ; protein stability index = 2.44

Form: variant = PDDSYSCHCLKGFTLNPDKKTCRR [T1P] ; protein stability index = 2.81

Form: variant = TDDSYSCHCLKGFTLNPFKKTCRR [D18F] ; protein stability index = 2.01
